Data origin, for the record: patent US20220332795A1

# ASSAYED_TARGET: T1, CD71 apical domain (human, UniProt P02786 189-383, limits assumed)
# T1 construct: domain: apical domain
# T1 sequence (P02786 189-383 limits assumed): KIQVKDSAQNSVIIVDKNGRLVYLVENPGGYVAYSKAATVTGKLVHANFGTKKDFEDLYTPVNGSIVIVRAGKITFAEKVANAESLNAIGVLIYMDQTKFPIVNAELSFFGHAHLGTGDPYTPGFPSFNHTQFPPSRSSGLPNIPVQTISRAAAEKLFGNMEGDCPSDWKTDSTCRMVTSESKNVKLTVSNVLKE
# EXPERIMENTAL_PROTOCOL: solution ELISA screen (luminescence)
MEASURE: RLU (RLU)

{"BINDER": "SEQ ID NO 244 (designed binder, not shown: small tags and cut ends) MLPAPKNLVVSRVTEDSARLSWTAPDAAFDSFYIAYAEPRPDGEAISLQVPGSERSYDLTGLKPGTEYSVLIHGVKGGLLSSPLGAHFTT", "RLU [RLU]": "5.93e+06"}

a. SEQ ID NO 269 (designed binder, not shown: small tags and cut ends) MLPAPKNLVVSRVTEDSARLSWTAPDAAFDSFYIAYAEPRPDGEAIWLDVPGSERSYDLTGLKPGTEYSVLIHGVKGGLLSSPLDAYFTT
b. SEQ ID NO 246 (designed binder, not shown: small tags and cut ends) MLPAPKNLVVSRVTEDSARLSWTAPDAAFDSFYIAYAEPRPDGEAIQLHVPGSERSYDLTGLKPGTEYSVLIHGVKGGLLSSPLYAFFTT
Which entry has a larger number for RLU, a or b ? Your choice should be expressed through its label.
a
(a: 5.56e+06 RLU, b: 47500 RLU)
